B1: library; a variant is named by its letters at N, in order (parent)
chain: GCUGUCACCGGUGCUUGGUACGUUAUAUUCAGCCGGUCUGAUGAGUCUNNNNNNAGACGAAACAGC

Variants of: B1
test.details: normalized RNA/DNA level with ligand (relative to sTRSVctl = 100) (log10 (% of sTRSVctl)); HEK293T overexpressing SLC46A1; ligand concentration (+) RNA-Seq: 6 mM; higher = less ribozyme self-cleavage, higher mRNA level
applied.conditions: with (6R,S)-folinic acid; ligand present: yes
measured.quantity: normalized RNA/DNA level with ligand (log10)

# mutation.notation, reading
data = [
    ("UCUUUU", 2.03),
    ("CCGUGU", 2.05),
    ("UUCAAC", 2.02),
    ("UCACCU", 2.06),
    ("CUGUGC", 2.02),
    ("GCCACC", 2.01),
    ("UAUAUA", 2),
    ("UCGAUU", 2.04),
    ("CCACGC", 2.01),
    ("CUAAUC", 2.01),
    ("CGUGUU", 2.03),
    ("UUGAAA", 2.02),
    ("UGUUAA", 1.98),
]
